Molecular target: unrelated Fc-fused recombinant protein
Test: ELISA, lysate on plate-bound antigen
Readout name: ELISA Fc Control (RSU)

1. ISOP121GR5P1F10 (designed binder, not shown: small tags and cut ends, FN3 domain; E. coli lysate in the ELISA) LPAPKNLVVSRVTEDSARLSWTAPDAAFDSFFIDYVERATVGEAIALNVPGSKRSYALTGLKPGTEYFVKIRGVKGGLKSKPLWAWFTT : 640
2. ISOP194BR9P1D1 (designed binder, not shown: small tags and cut ends, FN3 domain; E. coli lysate in the ELISA) LPAPKNLVVSRVTEDSARLSWEHSLLNDQWFDSFLIQYQESEKVGEAIVLTVPGSERSYDLTGLKPGTEYTVSIYGVYQRGRALWYSNPLSAIFTT : 1360
3. ISOP121BR5P1A2 (designed binder, not shown: small tags and cut ends, FN3 domain; E. coli lysate in the ELISA) LPAPKNLVVSRVTEDSARLSWRFSQEWFDSFLIQYQESEKVGEAIVLTVPGSERSYDLTGLKPGTEYTVSIYGVYARGIHKWLSNPLSAIFTT : 720
4. ISOP121BR5P1D6 (designed binder, not shown: small tags and cut ends, FN3 domain; E. coli lysate in the ELISA) LPAPKNLVVSRVTEDSARLSWKQGTSFHFDSFLIQYQESEKVGEAIVLTVPGSERSYDLTGLKPGTEYTVSIYGVQLLANDIISSNPLSAIFTT : 560
5. ISOP194AR9P1H3 (designed binder, not shown: small tags and cut ends, FN3 domain; E. coli lysate in the ELISA) LPAPKNLVVSRVTEDSARLSWNASWISHNFFDSFLIQYQESEKVGEAIVLTVPGSERSYDLTGLKPGTEYTVSIYGVYERKTAFYSNPLSAIFTT : 9200
6. ISOP121FR5P1H8 (designed binder, not shown: small tags and cut ends, FN3 domain; E. coli lysate in the ELISA) LPAPKNLVVSRVTEDSARLSWTAPDAAFDSFVIYYSEQHFYGEAIVLTVPGSERSYDLTGLKPGTEYVVKIYGVKGGETSKPLSAIFTT : 560

A: ISOP194HR9P1B10 (designed binder, not shown: small tags and cut ends, FN3 domain; E. coli lysate in the ELISA) LPAPKNLVVSRVTEDSARLSWTAPDAAFDSFPIRYYERANGEAIVLTVPGSERSYDLTGLKPGTEYIVWIYGVKGGGRSGPLSAIFTT
B: ISOP121HR5P1G9 (designed binder, not shown: small tags and cut ends, FN3 domain; E. coli lysate in the ELISA) LPAPKNLVVSRVTEDSARLSWTAPDAAFDSFPINYGERATKGEAINLYVPGSERSYDLTGLKPGTEYWVLIGGVKGGLKSSPLWAWFTT
Which has the smaller recorded ELISA Fc Control (RSU), A or B ? I would appreciate it if you answered with the label of your choice.
A
(A: 560 RSU, B: 880 RSU)
